Items are presented alongside their recorded log10 AUC(0-inf).
- assay: PK study of the 12 alkaloids in rat plasma after oral administration of ZJ and FZJ extract (LC–MS/MS)
- Assay type: in vivo
- recorded-conditions: 3.38 g/kg; rat plasma, oral ZJ extract, mean ± SD, n = 6; read-out: AUC0→∞
Log10 applied to AUC(0-inf); unit prior to transform: ng·h/mL.

Below, 5 molecules whose answers are already recorded.
CCCCC=CCCCCCCCc1cc(=O)c2ccccc2n1C [evocarpine]    1.77
COc1cc2c(cc1OC)C(=O)NCC2 [corydaldine]    1.67
Cn1c(=O)n(CCC2(O)C(=O)Nc3ccccc32)c(=O)c2ccccc21 (centres unmarked) [wuchuyuamide-I]    1.11
O=C1NCCc2cc3c(cc21)OCO3 [noroxyhydrastinine]    2.15
COc1cc2c(cc1OC)-c1cc3ccc4c(c3c(=O)n1CC2)OCO4 [8-oxoepiberberine]    1.22

Note log10 AUC(0-inf) for the molecule shown: O=c1c2c3c(ccc2cc2n1CCc1cc4c(cc1-2)OCO4)OCO3 [8-oxocoptisine]
1.43

Determine its reported log10 AUC(0-inf): COc1cc2c(cc1OC)-c1cc3ccc4c(c3c[n+]1CC2)OCO4 [epiberberine]
1.84

Give log10 AUC(0-inf) for COc1ccc2cc3[n+](cc2c1OC)CCc1cc2c(cc1-3)OCO2 [berberine]
2.48
